- run-description: PK/PD experiment of ICR mice: plasma concentration
- Type: in vivo, CD-1 (ICR) mice
- measurement-conditions: CD-1 (ICR), mouse, oral dose 1 mg/kg, 2 hours
test-readout: concentration at 2 h (ng/mL)
Just the number in ng/mL, nothing appended.

Please report the recorded concentration at 2 h for C[C@@H]1c2cnc(C(F)(F)F)n2CCN1C(=O)C[C@H](N)Cc1cc(F)c(F)cc1F [DPPIV-P1] .
57.9

* * *

- run-description: PK/PD experiment of ICR mice: plasma concentration
- Format: in vivo, CD-1 (ICR) mice
- measurement-conditions: CD-1 (ICR), mouse, oral dose 0.1 mg/kg, read-out: Drug exposure (AUCeff0-3 h)
test-readout: AUC (ng·h/mL)
Please state the figure in ng·h/mL; there is no need to write the unit.

Request the reported AUC associated with C[C@@H]1c2cnc(C(F)(F)F)n2CCN1C(=O)C[C@H](N)Cc1cc(F)c(F)cc1F [DPPIV-P1]
16.1
